- MEASUREMENT PROTOCOL: Luciferase activity of purified RLuc mutants (light output integrated over 10 s, luminometer)
- Format: biochemical
- CONDITION CONTEXT: benzyl-coelenterazine; relative to native enzyme
MEASURED ATTRIBUTE: Activity (relative to RLuc) bc

What value of Activity (relative to RLuc) bc has been reported for the following molecule? C124A/F261L/F262L: RLuc mutant C124A/F261L/F262L (protein) MASKVYDPEQRKRMITGPQWWARCKQMNVLDSFINYYDSEKHAENAVIFLHGNAASSYLWRHVVPHIEPVARCIIPDLIGMGKSGKSGNGSYRLLDHYKYLTAWFELLNLPKKIIFVGHDWGAALAFHYSYEHQDKIKAIVHAESVVDVIESWDEWPDIEEDIALIKSEEGEKMVLENNFFVETMLPSKIMRKLEPEEFAAYLEPFKEKGEVRRPTLSWPREIPLVKGGKPDVVQIVRNYNAYLRASDDLPKMFIESDPGLLSNAIVEGAKKFPNTEFVKVKGLHFSQEDAPDEMGKYIKSFVERVLKNEQ
0.00
